- Test system: human epidermal growth factor receptor (EGFR)
- Assay: Biacore SPR binding kinetics of anti-EGFR scFv-Fc clones with or without 10 µM MTX
- Recorded conditions: 0 µM MTX, 37° C., pH 7.4, scFv-Fc
Measured parameter: koff, kinetics toward antigen with 0 µM MTX

| Molecule | Reported measurement |
| --- | --- |
| P01_B06: anti-EGFR reference clone, less than 2-fold MTX effect; VH SEQ ID NO: 129, VL SEQ ID NO: 130 (antibody, V domains shown, Synthetic Antibody) VH: QVQLVESGGGLVQAGGSLRLSCAASRRSSRSWAMHWVRQAPGKGLEWVAVISYDGRLKYYADSVKGRFTISRDNAEYLVYLQMNSLRAEDTAVYYCAADTSMFASYDPMDVWGQGTLVTVSS VL: QSVLTQPPSASGTPGQRVTISCSGSSSNIGRNYVNWYQQLPGTAPKLLIYRDDHRPSGVPDRFSGSKSGTSASLAISGLRSEDEADYYCASWDDTLSGWVFGTGTKLTVL | 0.024 s⁻¹ |
